Test system: PPARg:RXRa 270nM:90nM, anti-RXR (NR concentration 270 nM, RXRa partner concentration 90 nM)
assayNotes: PBM binding z-score (relative to random genomic background probes); higher = stronger binding; sequences stand for … in GC…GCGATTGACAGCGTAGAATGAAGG
Item-by-item account of PBM binding z-score
Form: value (number only, do not type unit).

The examples below pair each entry with its known result.
>>> numericvalue("TCATATAGGTAATGGTGAAAGTCGAACGATATGA")
2.42
>>> numericvalue("AGAACGAGGGCAATGAGTTGATAGCTCGGGTGGC")
0.695
>>> numericvalue("GCGACGGGGGCATCAGCAGGTTACCATAACTTAA")
3.35
>>> numericvalue("CCTAGCATGCCAGGGTCACTCAAGCATTTCGCTT")
1.23
>>> numericvalue("CGGCAAAGTTCAAGGTAACGTAACAGAAAGCAGC")
4.6
>>> numericvalue("GCATATAGGTAATACAAGGTGAAAGCCCGATTGT")
1.08

Given the entry TCTGCTAGCTCAACGATGGTCAGCTAATCTGCTA , report its measured PBM binding z-score.
0.116

Given the entry CGTCCATGGTCAGAGAGGTCAGTGAATGCCGAGT , report its measured PBM binding z-score.
0.981

Given the entry ATATGTAAGTTACATCCGGGTCATTCAGGCTATG , report its measured PBM binding z-score.
1.44

Given the entry ATCGAAAGGTCTAGGTGAGTATAGAGAAAGGGAA , report its measured PBM binding z-score.
0.366

Given the entry GCTATTAGTTGAAAGGGCAACGGAATGATTCTCG , report its measured PBM binding z-score.
4.33

Given the entry CAAACTAGGTCACCGGAAGCTCAAAGTCCGCATG , report its measured PBM binding z-score.
7.22

---

System: RARa homodimer (NR concentration 270 nM)
assayNotes: PBM binding z-score (relative to random genomic background probes); higher = stronger binding; sequences stand for … in GC…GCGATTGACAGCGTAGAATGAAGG
Entry flag: Satisfied if PBM binding z-score reaches 0.6; Not satisfied if it does not.

Previously resolved entries follow.
>>> classification("ATCGAAAGGTCGACGTGAGTATAGAGAAAGGGAA")
"Not satisfied"
>>> classification("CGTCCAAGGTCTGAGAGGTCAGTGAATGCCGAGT")
"Not satisfied"
>>> classification("ACTTACCGGTCAACGAGGTTATAGCACGCGTATA")
"Satisfied"
>>> classification("GCTGCTTGGTCAGGTTGGTCAGCTAACGGGTACG")
"Not satisfied"
>>> classification("TGAATGAGGTTAAAGATAAGGGAACGTGGCGTCG")
"Not satisfied"
>>> classification("ATCTCTAGGTTAGACTCAGTTCAGTGAAGAACGC")
"Satisfied"
>>> classification("CCTGCAAGGTCATGGTCAGCTAATCTACAGTATG")
"Satisfied"
>>> classification("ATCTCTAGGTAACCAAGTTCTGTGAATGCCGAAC")
"Not satisfied"
>>> classification("CAAACTTGGTCACGAAAGGTCAAAGTCGAATGAC")
"Satisfied"
>>> classification("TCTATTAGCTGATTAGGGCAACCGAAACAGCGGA")
"Not satisfied"

For this sequence, is measured PBM binding z-score 0.6 or higher? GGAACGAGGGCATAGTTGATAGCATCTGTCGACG
Not satisfied

For this sequence, is measured PBM binding z-score 0.6 or higher? TCGAGTAGGTTAGTCGGTGCATTCAGCCAACATA
Not satisfied

For this sequence, is measured PBM binding z-score 0.6 or higher? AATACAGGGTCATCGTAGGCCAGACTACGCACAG
Satisfied
